All figures here come from PubChem BioAssay (NCI).

Test system: LOX IMVI melanoma
Assay: NCI-60 one-dose screen, 48 h (100 = growth as untreated, 0 = no growth, -100 = all killed)
Details: 10 µM unless noted
The panel holds about 83,000 compounds, 20% with a hit somewhere; the sample as a whole holds those more often.
The threshold is inclusive: growth of exactly 10% counts as satisfied; values below receive not satisfied.

// below: answered compounds
compound	test target	assigned category
Nc1nc(N)c2nc(-c3cccc(O)c3)c(-c3cccc(O)c3)nc2n1	LOX IMVI melanoma	satisfied
Cc1ccc2oc(=O)cc(-c3cc(-c4cc5ccccc5oc4=O)nc(N)c3C#N)c2c1	LOX IMVI melanoma	satisfied
c1cc(OCCN2CCCCC2)cc(-c2n[nH]c3ccc(-c4ncn[nH]4)cc23)c1	LOX IMVI melanoma	satisfied

Decide: growth of C=C1C(=O)O[C@H]2[C@H]1CC/C(CNC(=O)c1cc3cc(OC)ccc3[nH]1)=C\CC[C@@]1(C)O[C@@H]21 >= 10%?
not satisfied

Test whether the compound COc1cnc2c(c1)C(=O)c1c-2n(CCCNC2=NCCS2)c(=O)c2cc(Cl)ccc12 records growth of 10% or higher.
not satisfied

Hi team, for CCN1/C(=C/C=C/c2n(-c3ccccc3)c3ccc(-c4nc5ccccc5s4)cc3[n+]2CC)N(c2ccccc2)c2ccc(-c3nc4ccccc4s3)cc21 , is the recorded growth at or above 10%?
not satisfied

I'd appreciate it if you could say whether CO[C@H](C(=O)N[C@@H](CCCCNC(=O)OCc1ccccc1)C(=O)OC(C)(C)C)[C@@H]1Cc2cc3cc(OC4CC(OC5CC(O)C(O)C(C)O5)C(O)C(C)O4)c(C)c(O)c3c(O)c2C(=O)[C@H]1OC1CC(OC2CC(OC3CC(C)(O)C(O)C(C)O3)C(O)C(C)O2)C(O)C(C)O1 (some centres not stated) has growth at least equal to 10%.
not satisfied

Assess whether reported growth for CCN(CC)Cc1cc(Nc2cc(C(F)(F)F)c(C#N)c3nc4ccccc4n23)ccc1O sits at 10% or higher.
satisfied

# bool: growth of O=C(O)C1(Cc2cccc(Nc3nccs3)n2)CCC(Oc2cccc(Cl)c2F)CC1 (configuration not stated) >= 10%
satisfied

Reported growth reaches at least 10% for COc1cnc2c(c1)C(=O)c1c-2n(CCCN2CCC(N)CC2)c(=O)c2cc([N+](=O)[O-])ccc12 ?
satisfied

Check the entry CCN(CC)CCNC(=O)c1c(C)[nH]c(/C=C2\C(=O)Nc3ccc(F)cc32)c1C : does growth equal or exceed 10%?
not satisfied

Could you tell me if the measured growth of C/C(=C(/c1ccc(Cl)cc1)c1ccc(OCCN2CCCCC2)cc1)c1ccccc1 reaches 10% or more?
satisfied

----------
As shown below, each of these molecules has a reported growth value.
System: HOP-92 NSCLC
Assay: NCI-60 one-dose screen, 48 h (100 = growth as untreated, 0 = no growth, -100 = all killed)
Settings: 10 µM unless noted
Description: Growth inhibition of the HOP-92 human Non-Small Cell Lung tumor cell line is measured as a screen for anti-cancer activity. Cells are grown in 96 well plates and exposed to the test compound for 48 hours. Compounds are tested at a single concentration, which is 10^-5 M for most compounds. The reported endpoint is percent growth (GI% or GIPRCNT), where numbers from 0 - 100% represent growth inhibition, and numbers from -100% - 0 represent cell death. […]
Compounds without any hit were thinned out: in the full panel of roughly 83,000, 20% have a hit. The source made the active and inactive calls. How the source made its calls: active means growth percent below 10; inactive means the rest.

Reading of growth for Cc1ccc(N)cc1CN1C(=O)c2ccccc2C1=O with HOP-92 NSCLC: 86.9% (inactive)

Lab entry: HOP-92 NSCLC assay, molecule O=C(Nc1ccc(C2=NCCCN2)cc1)c1ccc(C(=O)Nc2ccc(C3=NCCCN3)cc2)nc1 , growth = 131% (inactive)

Fill in: HOP-92 NSCLC growth for Cc1oc2c(C(=O)N/N=C\c3ccc(O)cc3O)c[nH]c2c1C = 13.4% (inactive)

Observed growth on HOP-92 NSCLC, entry Cc1csc(-c2nnc(Nc3ccc(Oc4ncccc4-c4ccnc(N)n4)cc3)c3ccccc23)c1 , equals 85.5% (inactive)

// returns growth for CCc1cc2c(c3ccc(C(=O)CBr)cc13)CCCC2 with HOP-92 NSCLC; value = 109% (inactive)

----------
Tested on: HOP-62 NSCLC
Test: NCI-60 one-dose screen, 48 h (100 = growth as untreated, 0 = no growth, -100 = all killed)
Settings: 10 µM unless noted
This is part of a sample that, as a whole, favours compounds with a hit. Of some 83,000 tested, about 20% had one in any assay.
Each entry below carries its recorded growth.
State just the number; it will be interpreted in %.

Reference set (5 entries):
                                   molecule  readout_number
0  O=C1C=CC2(NN=C(c3ccccc3)N2c2cccc(Cl)c2)C(Cl)=C1 (stereo unspecified)            63.8
1  C#Cc1cccc(Nc2ncnc3cc4c(cc23)OCCOCCOCCO4)c1            56.1
2  COc1cc(CCc2cc(NC(=O)c3ccc(N4C[C@@H](C)N[C@@H](C)C4)cc3)n[nH]2)cc(OC)c1            38.1
3  C[N+](C)(CCOC(c1ccccc1)c1ccccc1)CC(=O)OCc1ccccc1            97.8
4  Cc1ccccc1N1C(c2ccccc2)=NNC12C=CC(=O)C=C2Cl (stereo unspecified)            98.3

Lab note: next molecule to report on.
Per the records, this molecule ( O=C(c1ccc(/C=C/c2n[nH]c3ccccc23)cc1)N1CCNCC1 ) has growth equal to 16.5

----------
Tested on: NCI-H322M lung
Assay: NCI-60 one-dose screen, 48 h
Settings: 10 µM unless noted
About 83,000 compounds went through this panel and 20% of them were active in at least one assay; those are over-represented in the sample as a whole. Calls of active or inactive are those of the source. Rule for the calls: active = growth percent below 10; inactive = the rest.
The reply should be one of these categories: true (1) for active, false (0) for inactive

                               entry_smiles     test_target  assigned_category
0  COc1c(OCCCN2CCOCC2)ccc2c3n(c(=NC(=O)c4cnc(N)nc4)nc12)CCN3  NCI-H322M lung           true (1)

Write down the call the test reported for this compound. Item: COc1ccc(Br)cc1NC(=O)Nc1cccc2c1ccn2Cc1ccnc(N)c1
false (0)

Per the assay record, what outcome was assigned to COc1cc2cc(NCc3ccc(Cl)cc3)nc(C)c2cc1OC ?
false (0)

----------
Tested on: EKVX NSCLC
Assay: NCI-60 one-dose screen, 48 h
Details: 10 µM unless noted
Compounds without any hit were thinned out: in the full panel of roughly 83,000, 20% have a hit. The source made the active and inactive calls. Rule for the calls: active = growth percent below 10; inactive = the rest.
The reply should be one of these categories: class 1 = active, class 0 = inactive

compound	assigned category
COc1ccc(C(=O)c2cc(OC)c(OC)c(OC)c2)cc1/C=C/C(=O)c1ccc(F)cc1	class 0

For CC(C)OP(=O)(CCC(=O)c1c[nH]c2ccccc12)OC(C)C , what call appears in the results of this test?
class 0

Tell me the recorded outcome of this test for CCCCCc1ccc(C)cc1OC(=O)CCl .
class 0

Hey, what did the test say about Ic1ccccc1-c1ccccc1 ?
class 0

What did this assay record as the result for Cc1cc(-c2cc(O)ccc2Cl)cc2nnc(Nc3ccc(OCCN4CCCC4)cc3)nc12 ?
class 1

Status in this test for COC(=O)[C@@H](NC(=O)[C@@H](OC)[C@@H]1Cc2cc3cc(OC4CC(OC5CC(O)C(O)C(C)O5)C(O)C(C)O4)c(C)c(O)c3c(O)c2C(=O)[C@H]1OC1CC(OC2CC(OC3CC(C)(O)C(O)C(C)O3)C(O)C(C)O2)C(O)C(C)O1)C(C)C (stereo partly specified) ?
class 0

Look up the recorded call for Nc1c2c(c(O)c3c1=C(CO)C=N3)=NCCS2=O (stereo unspecified) in this test.
class 1

Dear all, I need the recorded test outcome for CO[C@H]1C[C@@H]2CC[C@@H](C)[C@@](O)(O2)C(=O)C(=O)N2CCCC[C@H]2C(=O)O[C@H]([C@H](C)C[C@@H]2CC[C@@H](OC(=O)C(C)(CO)CO)[C@H](OC)C2)CC(=O)[C@H](C)/C=C(\C)[C@@H](O)[C@@H](OC)C(=O)[C@H](C)C[C@H](C)\C=C/C=C/C=C/1C , thank you.
class 0

How did this test come out for O=C(O)c1ccc2c(c1)nc(Nc1cccc(Cl)c1)c1ccncc12 ?
class 0

Hey, what did the test say about Cc1cc(O)cc(-c2c(-c3ccnc(-c4cccnc4)c3)cnn2C)c1 ?
class 0

What outcome does the record of this test show for COC(=O)C1=C(C(=O)OC)C23C=C(C)C1C2=C(C)C1(CC1)[C@@](C)(O)C3=O (stereo partly specified) ?
class 1

----------
System: UACC-62 melanoma
Experiment: NCI-60 one-dose screen, 48 h (100 = growth as untreated, 0 = no growth, -100 = all killed)
Conditions: 10 µM unless noted
The panel holds about 83,000 compounds, 20% with a hit somewhere; the sample as a whole holds those more often.
readout name: growth (%)
Field format: number, assumed %, no unit text.

Below, 4 molecules whose answers are already recorded.
>>> df
                                   molecule  readout_name  endpoint_unit  readout_number
0  CN1CCN(c2ccc(C(=O)Nc3n[nH]c4ccc(Cc5cc(F)cc(F)c5)cc34)c(NC3CCOCC3)c2)CC1        growth              %           -78.4
1  COc1ccc(Nc2ncccc2NC(=O)c2cn(Cc3cccc(Oc4ccccc4)c3)nn2)cc1        growth              %              67
2  CC#CC(=O)N1CCC[C@H]1c1nc(-c2ccc(C(=O)Nc3ccccn3)cc2)c2c(N)nccn12        growth              %            77.1
3  Fc1ccc(NCc2cn(-c3ccccc3)nc2-c2ccc(OCc3ccccc3)cc2)cc1Cl        growth              %            90.7

Looking up O=C1NC(=O)/C(=C/c2ccc3nccc(-c4ccncc4)c3c2)S1 , I see its growth listed as -74.2

So for CCCCCCCCCCCC[n+]1ccccc1 , the logged growth turned out to be -41.9
